This collection of values is drawn from patent US12186309B2.

Test Name: in vitro
Type: cell-based
Condition Set: human
Reported CC50 at 24 h values are given for each entry in this list.

CC(C)(C)[C@H](NC(=O)C(F)F)C(=O)N1C[C@H]2[C@@H]([C@H]1C(=O)N[C@H](C#N)C[C@@H]1CCCNC1=O)C2(C)C ... > 200 µM

Turning now to a further record.
Consider the compound [2H]C1([2H])CC[C@@H](C[C@@H](C#N)NC(=O)[C@@H]2[C@@H]3[C@H](CN2C(=O)[C@@H](NC(=O)C(F)F)C(C)(C)C)C3(C)C)C(=O)N1 and give its measured CC50 at 24 h.
> 200 µM
